The reported measurements were obtained from paper PMC6054458.

biological target: MDM2 (Homo sapiens, UniProt Q00987)
Sequence (Q00987 428-491 limits assumed): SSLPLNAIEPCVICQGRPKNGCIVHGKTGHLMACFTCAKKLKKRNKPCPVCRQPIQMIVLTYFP
Assay metric: pKd
For clarity, pKd is expressed as the negative log10 of concentration in mol/L.

Query (compound): `O=C(CCl)Nc1cc(O)c2c(c1)C(=O)c1cccc(O)c1C2=O` ; field requested: pKd 6.43
